From: paper PMC3523284

assay.target: Mss51 (Saccharomyces cerevisiae)
pKd: −log10 of the molar value.
observed.property: pKd

Lab note: molecule `C=CC1=C(C)C2=Cc3c(C=C)c(C)c4[n]3[Fe]([Cl])[n]3c(c(C)c(CCC(=O)O)c3=CC3=NC(=C4)C(C)=C3CCC(=O)O)=CC1=N2` tested on Mss51 (Saccharomyces cerevisiae); recorded pKd was ~6.35

----------
assay.target: Mss51 (Saccharomyces cerevisiae, UniProt P32335, C85S)
Sequence (P32335 whole entry C85S): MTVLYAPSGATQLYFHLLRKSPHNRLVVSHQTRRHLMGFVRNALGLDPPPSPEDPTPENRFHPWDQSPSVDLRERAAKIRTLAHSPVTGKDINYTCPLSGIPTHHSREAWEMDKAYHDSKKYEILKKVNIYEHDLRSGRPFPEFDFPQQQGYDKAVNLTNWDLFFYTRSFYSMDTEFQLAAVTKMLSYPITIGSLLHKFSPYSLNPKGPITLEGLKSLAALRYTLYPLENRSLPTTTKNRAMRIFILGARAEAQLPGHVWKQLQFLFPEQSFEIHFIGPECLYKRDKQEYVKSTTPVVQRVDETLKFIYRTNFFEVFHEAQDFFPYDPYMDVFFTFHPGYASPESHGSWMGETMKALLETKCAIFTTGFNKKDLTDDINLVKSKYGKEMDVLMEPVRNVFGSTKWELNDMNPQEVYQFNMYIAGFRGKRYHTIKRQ
method: difference UV-visible spectroscopy titration
observed.property: Kd
Answer by giving the amount and then stating its unit.

The recorded Kd for entry `C=CC1=C(C)C2=Cc3c(C=C)c(C)c4[n]3[Fe]([Cl])[n]3c(c(C)c(CCC(=O)O)c3=CC3=NC(=C4)C(C)=C3CCC(=O)O)=CC1=N2` equals 324 nM
